meta.source: paper PMC6269792

I'd appreciate it if you could supply melting point values for the items below.

In: Consider the molecule shown here: "O=C(Nc1cccc(OC(F)(F)F)c1)c1ccccc1NS(=O)(=O)c1ccc([N+](=O)[O-])cc1" What is its recorded melting point?
Out: 198.8 to 199.4 °C

In: Give the measured melting point of "O=C(Nc1cccc(OC(F)(F)F)c1)c1ccccc1NS(=O)(=O)c1cccc(F)c1" .
Out: 166.8 to 168.7 °C

In: Any idea what its melting point is? The molecule is "O=C(Nc1cc(Cl)cc(Cl)c1)c1ccccc1NS(=O)(=O)c1cccc([N+](=O)[O-])c1"
Out: 209.9 to 210.4 °C

In: Would you mind telling me what melting point value was observed for "O=C(Nc1cccc(OC(F)(F)F)c1)c1ccc(NS(=O)(=O)c2cccc([N+](=O)[O-])c2)cc1" ?
Out: 177.3 to 178.2 °C

In: Using the record for "O=C(Nc1ccc(F)c(Cl)c1)c1ccccc1NS(=O)(=O)c1cccc([N+](=O)[O-])c1" , report its melting point.
Out: 203.4 to 204.1 °C

In: Suppose we examine the molecule "Cc1ccc(NC(=O)c2ccccc2NS(=O)(=O)c2ccc([N+](=O)[O-])cc2)cc1C(F)(F)F" ; what melting point value has been reported?
Out: 198.8 to 199.6 °C

In: Field request: melting point | item: "O=C(Nc1ccc(Cl)c(Cl)c1)c1ccccc1NS(=O)(=O)c1ccc([N+](=O)[O-])cc1"
Out: 243.4 to 243.6 °C
